Field: IC50. Provide a value for each of the molecules that follow.
- TGT: FAP-expressing human WI-38 fibroblasts (Homo sapiens, UniProt Q12884)
- Construct: FAP-expressing human WI-38 fibroblasts (ECACC) were cultured in EMEM; host or cells: WI-38 human fibroblasts
- EXPERIMENTAL_DETAILS: Competitive FACS binding assay
- TEST_PARAMETERS: pIC50 Category (FACS), competition with 3 nM Cy5-labeled compound, WI-38 fibroblasts, 4° C., 1 hour
Numbered stars: 1 amine (or outer) side, 2 acyl side, 3 side chain; on linkers, the order of the positions; unused ones are H or OH. Bridge positions count the residues as written; N and C are the ends. Square brackets hold non-standard residues; d marks the D form. Peptide text beside a SMILES is read from it. * marks the point of attachment. mXylylene = c1cc(C[*:1])cc(C[*:2])c1; Hexanoyl = CCCCCC(=O)*

Query block: Report IC50 for CCCCCC(=O)N[C@H]1CSCc2cccc(c2)CSC[C@@H](C(=O)N[C@@H](CC(=O)O)C(N)=O)NC(=O)[C@H](Cc2ccccc2)NC(=O)[C@H](CCC(=O)O)NC(=O)[C@H]([C@@H](C)O)NC(=O)[C@@H]2CCCN2C(=O)[C@@H]2CCCN2C1=O [3BP-3288] (Hexanoyl-CPPTEFCD-NH2; linker 1-7 via mXylylene) tested on FAP-expressing human WI-38 fibroblasts (Homo sapiens, UniProt Q12884).
Result block: < 0.01 µM

Query block: Give recorded IC50 with FAP-expressing human WI-38 fibroblasts (Homo sapiens, UniProt Q12884) for the following molecule: CCCCCC(=O)N[C@H]1CSCc2cccc(c2)CSC[C@@H](C(N)=O)NC(=O)[C@H](Cc2ccccc2)NC(=O)[C@H](CCC(N)=O)NC(=O)[C@H]([C@@H](C)O)NC(=O)[C@@H]2CCCN2C(=O)[C@@H]2CCCN2C1=O
Result block: 0.01 to 0.0794 µM

Query block: FAP-expressing human WI-38 fibroblasts (Homo sapiens, UniProt Q12884) / IC50 / CSCC[C@H](NC(C)=O)C(=O)N[C@H]1CSCc2cccc(c2)CSC[C@@H](C(=O)N[C@@H](CC(=O)O)C(=O)N[C@@H](Cc2c[nH]cn2)C(=O)N[C@@H](Cc2ccccc2)C(=O)N[C@@H](CCCNC(=N)N)C(=O)N[C@@H](CC(=O)O)C(N)=O)NC(=O)[C@H](Cc2ccccc2)NC(=O)[C@H](CCC(=O)O)NC(=O)[C@H]([C@@H](C)O)NC(=O)[C@@H]2CCCN2C(=O)CNC1=O [3BP-3214] (Ac-MCGPTEFCDHFRD-NH2; linker 2-8 via mXylylene) : value?
Result block: < 0.01 µM

Query block: # value lookup — system FAP-expressing human WI-38 fibroblasts (Homo sapiens, UniProt Q12884), readout IC50, item CCCCCC(=O)N[C@H]1CSCc2cc(CSCCNC(=O)CN3CCN(CC(=O)O)CCN(CC(=O)O)CCN(CC(=O)O)CC3)cc(c2)CSC[C@@H](C(=O)NCCCC(=O)O)NC(=O)[C@H](Cc2ccccc2)NC(=O)[C@H](CCC(N)=O)NC(=O)[C@H]([C@@H](C)O)NC(=O)[C@@H]2CCCN2C(=O)[C@@H]2CCCN2C1
Result block: < 0.01 µM

Query block: Checklist item: IC50 tested on FAP-expressing human WI-38 fibroblasts (Homo sapiens, UniProt Q12884), entry CSCC[C@H](NC(C)=O)C(=O)N[C@H]1CSCc2cccc(c2)CSC[C@@H](C(=O)N[C@@H](CC(=O)O)C(=O)N[C@@H](Cc2c[nH]cn2)C(=O)N[C@@H](Cc2ccccc2)C(=O)N[C@@H](CCCNC(=N)N)C(=O)N[C@@H](CC(=O)O)C(N)=O)NC(=O)[C@H](Cc2ccccc2)NC(=O)[C@H](CCC(=O)O)NC(=O)[C@H]([C@@H](C)O)NC(=O)[C@@H]2CCCN2C(=O)[C@H]2CCCN2C1=O [3BP-3176] (Ac-MC[dP]PTEFCDHFRD-NH2; linker 2-8 via mXylylene) , value?
Result block: 0.1 to 0.794 µM

###

Exercise: for every item that follows, state its recorded pIC50.
- TGT: Human recombinant FAP (Homo sapiens, UniProt Q12884)
- Sequence (Q12884 1-760): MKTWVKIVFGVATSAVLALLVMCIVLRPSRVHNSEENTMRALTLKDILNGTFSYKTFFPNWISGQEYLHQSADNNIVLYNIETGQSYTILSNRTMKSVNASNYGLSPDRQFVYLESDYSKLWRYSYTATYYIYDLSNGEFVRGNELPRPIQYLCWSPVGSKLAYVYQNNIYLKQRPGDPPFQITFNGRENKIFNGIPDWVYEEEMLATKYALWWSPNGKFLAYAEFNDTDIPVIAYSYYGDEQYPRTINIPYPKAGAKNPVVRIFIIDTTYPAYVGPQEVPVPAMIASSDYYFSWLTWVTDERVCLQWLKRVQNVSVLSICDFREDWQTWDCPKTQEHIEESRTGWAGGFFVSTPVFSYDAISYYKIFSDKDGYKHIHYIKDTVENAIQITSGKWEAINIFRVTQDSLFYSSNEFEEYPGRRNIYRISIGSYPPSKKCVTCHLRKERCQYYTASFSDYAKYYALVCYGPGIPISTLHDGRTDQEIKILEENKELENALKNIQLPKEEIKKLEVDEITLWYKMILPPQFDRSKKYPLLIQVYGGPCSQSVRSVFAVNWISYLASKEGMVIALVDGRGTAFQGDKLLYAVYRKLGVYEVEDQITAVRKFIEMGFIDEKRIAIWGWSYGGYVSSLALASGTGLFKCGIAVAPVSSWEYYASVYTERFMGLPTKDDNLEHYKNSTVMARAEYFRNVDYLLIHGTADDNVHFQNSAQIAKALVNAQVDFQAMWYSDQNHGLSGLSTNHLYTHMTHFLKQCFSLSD
- EXPERIMENTAL_DETAILS: FRET-based FAP protease activity assay
- Assay type: biochemical
- Set-up: purchased R&D systems 3715-SE
- TEST_PARAMETERS: pIC50 Category (Activity), recombinant human FAP, FRET substrate, 37° C.
pIC50: −log10 of the molar value. Numbered stars: 1 amine (or outer) side, 2 acyl side, 3 side chain; on linkers, the order of the positions; unused ones are H or OH. Bridge positions count the residues as written; N and C are the ends. Peptide text beside a SMILES is read from it. mXylylene = c1cc(C[*:1])cc(C[*:2])c1

Query block: Enter reported pIC50 observed with Human recombinant FAP (Homo sapiens, UniProt Q12884) for CSCC[C@H](NC(C)=O)C(=O)N[C@H]1CSCc2cccc(c2)CSC[C@@H](C(=O)N[C@@H](CC(=O)O)C(=O)N[C@@H](Cc2c[nH]cn2)C(=O)N[C@@H](C)C(=O)N[C@@H](CCCNC(=N)N)C(=O)N[C@@H](CC(=O)O)C(N)=O)NC(=O)[C@H](Cc2ccccc2)NC(=O)[C@H](CCC(=O)O)NC(=O)[C@H]([C@@H](C)O)NC(=O)[C@@H]2CCCN2C(=O)[C@@H]2CCCN2C1=O [3BP-3196] (Ac-MCPPTEFCDHARD-NH2; linker 2-8 via mXylylene)
Result block: > 8.00

Query block: Please tell me: pIC50 of CCCCCC(=O)N[C@H]1CSCc2cc(CSCCNC(=O)CN3CCN(CC(=O)O)CCN(CC(=O)O)CCN(CC(=O)O)CC3)cc(c2)CSC[C@@H](C(=O)NCCC(=O)O)NC(=O)[C@H](Cc2ccccc2)NC(=O)[C@H](CCC(N)=O)NC(=O)[C@H]([C@@H](C)O)NC(=O)[C@@H]2CCCN2C(=O)[C@@H]2CCCN2C1=O , system Human recombinant FAP (Homo sapiens, UniProt Q12884)?
Result block: > 8.00

Query block: Find the measured pIC50: item CCCC[C@H](NC(=O)CCC(=O)NCCCOCCOCCOCCCNC(=O)CN1CCN(CC(=O)O)CCN(CC(=O)O)CCN(CC(=O)O)CC1)C(=O)N[C@H]1CSCc2cccc(c2)CSC[C@@H](C(=O)NCCC(=O)O)NC(=O)[C@H](Cc2ccccc2)NC(=O)[C@H](CCC(N)=O)NC(=O)[C@H]([C@@H](C)O)NC(=O)[C@@H]2CCCN2C(=O)[C@@H]2CCCN2C1=O , target or system Human recombinant FAP (Homo sapiens, UniProt Q12884).
Result block: > 8.00

###

- TGT: FAP-expressing human WI-38 fibroblasts (Homo sapiens, UniProt Q12884)
- Construct: FAP-expressing human WI-38 fibroblasts (ECACC) were cultured in EMEM; host or cells: WI-38 human fibroblasts
- EXPERIMENTAL_DETAILS: Competitive FACS binding assay
- TEST_PARAMETERS: pIC50 Category (FACS), competition with 3 nM Cy5-labeled compound, WI-38 fibroblasts, 4° C., 1 hour
pIC50: −log10 of the molar value. Numbered stars: 1 amine (or outer) side, 2 acyl side, 3 side chain; on linkers, the order of the positions; unused ones are H or OH. Bridge positions count the residues as written; N and C are the ends. Square brackets hold non-standard residues; d marks the D form. Peptide text beside a SMILES is read from it. * marks the point of attachment. X2 = O=C(O)CN1CCN(CC(=O)O)CCN(CC(=O)NCCCOCCOCCOCCCN*)CCN(CC(=O)O)CC1; mXylylene = c1cc(C[*:1])cc(C[*:2])c1; 4Pal = N[C@@H](Cc1ccncc1)C(=O)O; Suc = O=C(CCC(=O)[*:2])[*:1]; 4Amb = NCc1ccc(C(=O)O)cc1; Nle = CCCC[C@H](N)C(=O)O
Record form. Attribute: pIC50. Fill in for each entry.

Query block: What does the record list as pIC50 for CCCCCC(=O)N[C@H]1CSCc2cc(CSCCNC(=O)CN3CCN(CC(=O)O)CCN(CC(=O)O)CCN(CC(=O)O)CC3)cc(c2)CSC[C@@H](C(=O)NCCC(=O)O)NC(=O)[C@H](Cc2ccccc2)NC(=O)[C@H](CCC(N)=O)NC(=O)[C@H]([C@@H](C)O)NC(=O)[C@@H]2CCCN2C(=O)[C@@H]2CCCN2C1=O ?
Result block: > 8.00

Query block: Need pIC50 of CSCC[C@H](NC(C)=O)C(=O)N[C@H]1CSCc2cccc(c2)CSC[C@@H](C(=O)N[C@@H](CC(=O)O)C(=O)N[C@@H](Cc2c[nH]cn2)C(=O)N[C@@H](Cc2ccncc2)C(=O)N[C@@H](CCCNC(=N)N)C(=O)N[C@@H](CC(=O)O)C(N)=O)NC(=O)[C@H](Cc2ccccc2)NC(=O)[C@H](CCC(=O)O)NC(=O)[C@H]([C@@H](C)O)NC(=O)[C@@H]2CCCN2C(=O)[C@@H]2CCCN2C1=O [3BP-3191] (Ac-MCPPTEFCDH[4Pal]RD-NH2; linker 2-8 via mXylylene) , thanks.
Result block: > 8.00

Query block: Which pIC50 value belongs to CCCC[C@H](NC(=O)CCC(=O)NCCCOCCOCCOCCCNC(=O)CN1CCN(CC(=O)O)CCN(CC(=O)O)CCN(CC(=O)O)CC1)C(=O)N[C@H]1CSCc2cccc(c2)CSC[C@@H](C(=O)N[C@@H](CC(=O)O)C(=O)NCc2ccc(C(=O)N[C@@H](CCCNC(=N)N)C(N)=O)cc2)NC(=O)[C@H](Cc2ccccc2)NC(=O)[C@H](CCC(=O)O)NC(=O)[C@H]([C@@H](C)O)NC(=O)[C@@H]2CCCN2C(=O)[C@@H]2CCCN2C1=O [3BP-3321] ({X2-Suc}-[Nle]CPPTEFCD[4Amb]R-NH2; linker 2-8 via mXylylene) ?
Result block: > 8.00

Query block: // lookup pIC50 for CSCC[C@H](NC(C)=O)C(=O)N[C@H]1CSCc2cccc(c2)CSC[C@@H](C(=O)N[C@@H](CC(=O)O)C(=O)N[C@@H](Cc2c[nH]cn2)C(=O)N[C@@H](Cc2ccccc2)C(=O)N[C@@H](CCCNC(=N)N)C(=O)N[C@@H](CC(=O)O)C(N)=O)NC(=O)[C@H](Cc2ccccc2)NC(=O)[C@H](CCC(=O)O)NC(=O)[C@H]([C@@H](C)O)NC(=O)[C@@H]2CCCN2C(=O)[C@@H]2CCCN2C1=O [3BP-2975] (Ac-MCPPTEFCDHFRD-NH2; linker 2-8 via mXylylene)
Result block: > 8.00

Query block: Which measured pIC50 value corresponds to CSCC[C@H](NC(C)=O)C(=O)N[C@H]1CSCc2cccc(c2)CSC[C@@H](C(=O)N[C@@H](CC(=O)O)C(=O)N[C@@H](Cc2c[nH]cn2)C(=O)N[C@@H](Cc2ccccc2)C(=O)N[C@@H](CCCNC(=N)N)C(N)=O)NC(=O)[C@H](Cc2ccccc2)NC(=O)[C@H](CCC(=O)O)NC(=O)[C@H]([C@@H](C)O)NC(=O)[C@@H]2CCCN2C(=O)[C@@H]2CCCN2C1=O [3BP-3200] (Ac-MCPPTEFCDHFR-NH2; linker 2-8 via mXylylene) ?
Result block: > 8.00

Origin of the recorded values: patent US20220315554A1
